Test system: NCI-H460
Assay: Cytotoxicity against human NCI-H460 cells after 48 hrs by sulforhodamine B assay
Format: functional
Conditions: NCI-H460, 48 h
Assay Endpoint: GI50 (nM)
Provide only the numeric value, understood in nM.

Input: GET GI50 where system = NCI-H460 and item = CC(C)[C@@H]1NC(=O)[C@H](C)OC(=O)[C@@H](C(C)C)NC(=O)[C@@H](CC2CCCCC2)OC(=O)[C@H]([C@@H](C)O)NC(=O)[C@H](C)OC(=O)[C@@H](C(C)C)NC(=O)[C@@H](CC2CCCCC2)OC(=O)[C@H](C(C)C)NC(=O)[C@H](C)OC(=O)[C@@H](C(C)C)NC(=O)[C@@H](CC2CCCCC2)OC1=O
Output: 16

Input: GET GI50 where system = NCI-H460 and item = CC[C@H](C)[C@H]1OC(=O)[C@H](C(C)C)NC(=O)[C@H](C)OC(=O)[C@@H](C(C)C)NC(=O)[C@@H]([C@@H](C)CC)OC(=O)[C@H](C(C)C)NC(=O)[C@H](C)OC(=O)[C@@H](C(C)C)NC(=O)[C@@H](CC(C)C)OC(=O)[C@H](C(C)C)NC(=O)[C@H](C)OC(=O)[C@@H](C(C)C)NC1=O
Output: 0.39

Input: GET GI50 where system = NCI-H460 and item = CC(C)[C@@H]1NC(=O)[C@H](C)OC(=O)[C@@H](C(C)C)NC(=O)[C@@H](CC2CCCCC2)OC(=O)[C@H](C(C)C)NC(=O)[C@H](C)OC(=O)[C@@H](C(C)C)NC(=O)[C@@H](CC2CCCCC2)OC(=O)[C@H](Cc2ccc(O)cc2)NC(=O)[C@H](C)OC(=O)[C@@H](C(C)C)NC(=O)[C@@H](CC2CCCCC2)OC1=O
Output: 239

Input: GET GI50 where system = NCI-H460 and item = CC(C)C[C@H]1OC(=O)[C@H](C(C)C)NC(=O)[C@H](C)OC(=O)[C@@H](C(C)C)NC(=O)[C@@H](CC2CCCCC2)OC(=O)[C@H]([C@@H](C)OC(C)(C)C)NC(=O)[C@H](C)OC(=O)[C@@H](C(C)C)NC(=O)[C@@H](CC(C)C)OC(=O)[C@H](C(C)C)NC(=O)[C@H](C)OC(=O)[C@@H](C(C)C)NC1=O
Output: 7.2

FYI, the data here is from ChEMBL document CHEMBL3576825.
